B1: Transitional endoplasmic reticulum ATPase, residues 26 to 106; numbered along this chain, P55072 (parent)
chain: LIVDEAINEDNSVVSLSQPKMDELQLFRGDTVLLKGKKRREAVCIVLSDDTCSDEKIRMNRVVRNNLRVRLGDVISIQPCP

Variants of: B1
Test: abundance fitness (aPCA) (normalised: wild type 0, dead -1); higher = more abundant; growth selection in yeast, the domain comes from the species named
Conditions: Homo sapiens
Rule: condition met for abundance fitness not less than -0.2, condition not met for anything less.

// below: answered variants
L47A
condition met
R70T
condition met
S15H
condition met
R39E
condition met

INPUT: Could you tell me if the measured abundance fitness of T31H reaches -0.2 or more?
OUTPUT: condition met

INPUT: Check if abundance fitness >= -0.2 (inclusive). Item: I77L
OUTPUT: condition met

INPUT: Has S76M a recorded abundance fitness greater than or equal to -0.2?
OUTPUT: condition met

INPUT: Kindly determine if abundance fitness recorded for Q78M is above or exactly -0.2.
OUTPUT: condition met

INPUT: # check: abundance fitness of D49V is greater than or equal to -0.2
OUTPUT: condition not met

INPUT: Reported abundance fitness at or above -0.2? N11R
OUTPUT: condition met

INPUT: Can R39P be said to have abundance fitness at or above -0.2?
OUTPUT: condition met

INPUT: Textbook exercise: given the entry Q78V , state whether its abundance fitness is greater than or equal to -0.2.
OUTPUT: condition met

INPUT: Confirm if abundance fitness reported for the variant D54P is -0.2 or above.
OUTPUT: condition met

INPUT: Reported abundance fitness reaches at least -0.2 for L47P ?
OUTPUT: condition not met

INPUT: Quick check, abundance fitness >= -0.2? K38R
OUTPUT: condition met

INPUT: Answer whether abundance fitness of E41G is greater than or equal to -0.2.
OUTPUT: condition not met

INPUT: Does the variant K37L have recorded abundance fitness that is -0.2 or more?
OUTPUT: condition met

INPUT: Please check the record S17D and state if its abundance fitness is at or above -0.2.
OUTPUT: condition not met

INPUT: Confirm if abundance fitness reported for the variant M21C is -0.2 or above.
OUTPUT: condition not met
